System: GPR40 (Homo sapiens, UniProt O14842)
Construct: expressed in transfected cells; host or cells: HEK293 cells stably expressing GPR40 (Hygromycin selection)
Sequence (O14842 whole entry): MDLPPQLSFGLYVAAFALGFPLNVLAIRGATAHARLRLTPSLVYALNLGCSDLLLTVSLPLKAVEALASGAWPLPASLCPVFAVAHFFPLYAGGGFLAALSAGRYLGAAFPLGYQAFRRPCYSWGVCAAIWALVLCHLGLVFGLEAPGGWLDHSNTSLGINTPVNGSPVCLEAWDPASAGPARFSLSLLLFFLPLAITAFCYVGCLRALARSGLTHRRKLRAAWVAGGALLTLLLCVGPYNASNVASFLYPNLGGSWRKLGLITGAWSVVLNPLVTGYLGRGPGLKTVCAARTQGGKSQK
Test Summary: IP1 accumulation assay in HEK293 cells stably expressing GPR40
Assay type: cell-based
Measurement Setup: IP1 accumulation, HEK293 cells stably expressing GPR40, 2 hours at 37° C., % effect relative to AMG-1638; table of Biological Example 1
Assay Endpoint: EC50 (nM)

Completed entries (count: 5):
[[record]]
test_smiles = "COc1ccc(C(=O)N(CC(C)(C)CCn2cc(COCCOCCOCCOCCOCC(=O)NCC[N+](C)(CCC(=O)NCCN)CCC(=O)NCCN)nn2)c2cccc(C)n2)c(N2CCC(COc3cc([C@@H](CC(=O)O)C4CC4)ccn3)CC2)c1"
meas_value = 1330

[[record]]
test_smiles = "COc1ccc(C(=O)N(CC(C)(C)CCCCCCn2cc(CCCCCCCCCCCCC(=O)NCC[N+](C)(CC(=O)NCCN)CC(=O)NCCN)nn2)c2cccc(C)n2)c(N2CCC(COc3cc([C@@H](CC(=O)O)C4CC4)ccn3)CC2)c1"
meas_value = 0.23

[[record]]
test_smiles = "C[C@H](C(=O)O)[C@H](c1ccc2c(c1)O[C@@H](C1CCN(Cc3cc(-c4cn(CCCCCCCCCC(=O)NCCN(CCC(=O)NCCN)CCC(=O)NCCN)nn4)ccc3OC(F)(F)F)CC1)CC2)C1CC1"
meas_value = 8400

[[record]]
test_smiles = "COc1ccc(F)c(-c2ccc(COc3cccc([C@@H](CC(=O)O)C4CC4)c3)cc2CC(C)(C)Cn2cc(CCCCCCCCCCCCCCCCCC(=O)NCCC[N+](C)(CC(=O)NCCN)CC(=O)NCCN)nn2)c1"
meas_value = 0.54

[[record]]
test_smiles = "COc1ccc(F)c(-c2ccc(COc3cccc([C@@H](CC(=O)O)C4CC4)c3)cc2OC(C)(C)Cn2cc(CCCCCCCCCCCCCC(=O)NCCN(CCC(=O)NCCN)CCC(=O)NCCN)nn2)c1"
meas_value = 22.8


(a) COc1ccc(F)c(-c2ccc(COc3cccc([C@@H](CC(=O)O)C4CC4)c3)cc2OC(C)(C)COCc2cn(CCCCCCCCCCCCCCCCCC(=O)NCC[N+](C)(CCC(=O)NCCN)CCC(=O)NCCN)nn2)c1
(b) COc1ccc(F)c(-c2ccc(COc3cccc([C@@H](CC(=O)O)C4CC4)c3)cc2CC(C)(C)Cc2cn(CCCCCCCCCCCC(=O)NCCN(CCC(=O)NCCN)CCC(=O)NCCN)nn2)c1
### Prompt Of a and b , which carries the smaller reported EC50 figure? Mark your selection by writing its label.
### Response a
(a: 4.77 nM, b: 212 nM)

(A) COc1ccc(F)c(-c2ccc(COc3cccc([C@@H](CC(=O)O)C4CC4)c3)cc2CC(C)(C)Cn2cc(CCCCCCCCCC(=O)NCCN(CCC(=O)NCCN)CCC(=O)NCCN)nn2)c1
(B) COc1ccc(F)c(-c2ccc(COc3cccc([C@@H](CC(=O)O)C4CC4)c3)cc2CC(C)(C)Cn2cc(CCCCCCCCCCCCCC(=O)NCCC[N+](C)(CC(=O)NCCN)CC(=O)NCCN)nn2)c1
### Prompt API: POST /compare with A and B ; response names the item with higher EC50. Mark your selection by writing its label.
### Response A
(A: 204 nM, B: 18.8 nM)
